# SYSTEM_TESTED: OGA (Homo sapiens, UniProt O60502)
# Construct: HEK293 cells inducible for P301L mutant human Tau (isoform 2N4R) were established at Janssen; endogenous in cells; host or cells: HEK293 cells inducible for P301L mutant human Tau (2N4R)
# Sequence (O60502 1-916): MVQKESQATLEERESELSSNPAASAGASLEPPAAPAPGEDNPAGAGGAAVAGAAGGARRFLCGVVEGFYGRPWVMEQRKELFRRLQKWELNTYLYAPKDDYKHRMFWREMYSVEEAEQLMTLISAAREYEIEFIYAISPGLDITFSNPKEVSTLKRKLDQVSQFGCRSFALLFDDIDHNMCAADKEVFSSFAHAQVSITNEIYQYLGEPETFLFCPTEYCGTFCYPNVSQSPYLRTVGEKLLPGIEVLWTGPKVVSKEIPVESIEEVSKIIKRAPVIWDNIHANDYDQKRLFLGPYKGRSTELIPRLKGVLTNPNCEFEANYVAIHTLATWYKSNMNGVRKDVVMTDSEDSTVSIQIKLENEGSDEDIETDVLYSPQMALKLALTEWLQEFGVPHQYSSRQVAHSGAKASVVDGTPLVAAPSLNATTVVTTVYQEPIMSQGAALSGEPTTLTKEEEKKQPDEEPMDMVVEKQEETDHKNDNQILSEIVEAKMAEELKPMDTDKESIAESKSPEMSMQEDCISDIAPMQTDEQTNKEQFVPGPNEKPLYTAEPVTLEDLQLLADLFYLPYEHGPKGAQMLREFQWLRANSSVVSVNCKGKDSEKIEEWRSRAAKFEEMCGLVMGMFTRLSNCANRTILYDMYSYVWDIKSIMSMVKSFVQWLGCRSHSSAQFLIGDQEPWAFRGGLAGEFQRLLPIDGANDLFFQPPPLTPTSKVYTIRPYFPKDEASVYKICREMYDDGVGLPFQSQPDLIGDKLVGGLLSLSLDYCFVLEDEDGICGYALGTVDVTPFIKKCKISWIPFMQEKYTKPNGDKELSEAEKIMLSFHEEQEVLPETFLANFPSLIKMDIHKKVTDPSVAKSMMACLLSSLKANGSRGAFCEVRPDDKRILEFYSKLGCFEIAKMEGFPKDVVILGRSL
# ASSAY_NOTES: OGA cellular assay (ICC detection of O-GlcNAcylated proteins in HEK293 cells inducible for P301L mutant human Tau)
# Format: cell-based
# TEST_CONTEXT: HEK293 cells inducible for P301L mutant human Tau, 6 hours incubation; read-out: Cellular hOGA; pEC50 (converted)
Please use satisfied for EC50 under 80 nM and not satisfied for everything else, ties included.

>>> class_name("CC(c1nc2c(cc1F)OCCO2)N1CCC(Oc2ccc(C(=O)N(C(C)C)C(C)C)nc2)CC1 (centres unmarked)")
"not satisfied"
>>> class_name("Cc1cc(C#N)cnc1OC1CCN(C(C)c2ccc3c(n2)OCCO3)CC1 (centres unmarked)")
"not satisfied"
>>> class_name("Cc1cncc(OC2CCN(C(C)c3ccc4c(n3)OCCO4)CC2)c1 (centres unmarked)")
"not satisfied"
>>> class_name("Cc1cc(OC2CCN(C(C)c3nc4c(cc3F)OCCO4)CC2)cc(C#N)n1 (centres unmarked)")
"satisfied"
>>> class_name("COc1cc(COC2CCN(C(C)c3nc4c(cc3F)OCCO4)CC2)cc(C)n1 (centres unmarked)")
"satisfied"
>>> class_name("Cc1cc(OC2CCN(C(C)c3nc4c(cc3F)OCCO4)CC2)c(Cl)c(C)n1 (centres unmarked)")
"satisfied"
>>> class_name("Cc1cc(OC2CCN(C(C)c3ccc4c(n3)OCCO4)CC2)cc(C(C)C)n1 (centres unmarked)")
"not satisfied"
>>> class_name("Cc1ccc(OC2CCN(C(C)c3ccc4c(c3)OCO4)CC2)cn1.Cl (centres unmarked)")
"not satisfied"
>>> class_name("CC(c1ccc2c(n1)OCCO2)N1CCC(Oc2cnc(Cl)nc2)CC1 (centres unmarked)")
"not satisfied"
>>> class_name("Cc1cc(OC2CCN(C(C)c3nc4c(cc3F)OCCO4)CC2)cc(C(F)(F)F)n1 (centres unmarked)")
"satisfied"
>>> class_name("CCc1cc(OC2CCN(C(C)c3ccc4c(n3)OCCO4)CC2)cc(C)n1 (centres unmarked)")
"not satisfied"
>>> class_name("Cc1cc(OC2CCN(C(C)c3ccc4c(n3)OCCO4)CC2)c(Cl)c(C)n1 (centres unmarked)")
"not satisfied"
>>> class_name("CC(C)c1ncc(OC2CCN(C(C)c3ccc4c(n3)OCCO4)CC2)cn1 (centres unmarked)")
"not satisfied"
>>> class_name("C[C@@H](c1nc2c(cc1F)OCCO2)N1CCC(Oc2ccc(C#N)nn2)CC1 (single isomer, unassigned)")
"not satisfied"
>>> class_name("COc1cc(OC2CCN(C(C)c3nc4nc(C)sc4cc3F)CC2)cc(C)n1 (centres unmarked)")
"satisfied"
